Data origin: paper PMC12001108

# Test system: GBM1-wildtype
# method description: Cell viability assay
# Type: cell-based
# settings: Homo sapiens, 72 h, read-out: ZTR IC50
recorded endpoint: pIC50
On this scale, pIC50 is minus log10 of a concentration expressed in M (mol/L).

CN1C/C=C/CCOc2cccc(c2)-c2ccnc(n2)Nc2cccc(c2)C1 yielded pIC50 of 7.64
